- System: UACC-62 melanoma
- experimentNotes: NCI-60 one-dose screen, 48 h
- statedConditions: 10 µM unless noted
The panel holds about 83,000 compounds, 20% with a hit somewhere; the sample as a whole holds those more often. The source made the active and inactive calls. The calls were made as follows: active = growth percent below 10; inactive = the rest.
Labels: true (1) = active, false (0) = inactive

{"columns": ["molecule", "categoryLabel"],
 "data": [
  ["Cc1cnc(C(=O)Nc2nc3ccc(S(=O)(=O)Nc4ccc(C(C)(C)C)cc4)cc3[nH]2)cn1", "false (0)"],
  ["N#C/C(=C\\c1ccc(C(F)(F)F)cc1)c1cc2ccccc2[nH]1", "false (0)"],
  ["COC(=O)/C=C1\\S/C(=N\\NC(=O)c2cc3ccc2/C=C\\c2ccc(cc2)/C=C\\3)N(c2ccccc2)C1=O", "false (0)"],
  ["CCN(CC)c1ccc(/C=N/NC(=O)CSc2nc3ccccc3c(=O)n2Cc2ccc(S(N)(=O)=O)cc2)c(O)c1", "true (1)"],
  ["C#CCNC(=O)[C@]1(C)CC[C@]2(C)CC[C@@H]3C(=CC[C@H]4[C@@]3(C)CC[C@H]3C(C)(C)C(=O)CC[C@]43C)[C@@H]2C1", "false (0)"],
  ["Cc1nc2sccn2c1-c1cn2ccsc2n1", "false (0)"],
  ["COc1cc(NC(C)CCCNC(=O)CCC(=O)NCCCNCCCCCCCCNCCCNC(=O)CCC(=O)NCCCC(C)Nc2cc(OC)cc3cccnc23)c2ncccc2c1 (stereo unspecified)", "false (0)"],
  ["COc1ccc(N2CCN(c3ccc(NC4=C(Cl)C(=O)c5ncccc5C4=O)cc3)CC2)cc1", "false (0)"],
  ["CC(C)(C)c1cc(/C=N/NC(=O)c2ccccc2NC(=O)c2cccs2)c(O)c(C(C)(C)C)c1", "false (0)"],
  ["CCN(CC)CCOc1ccc(NC(=O)C(C(C)C)N2C(=O)/C(=C/c3ccc(Br)cc3)SC2=S)cc1 (stereo unspecified)", "false (0)"],
  ["Cn1ccc2c1CC1CN(Cc3ccco3)C(=O)C1C2C(=O)O (stereo unspecified)", "false (0)"],
  ["COc1cccc(-c2nc3occn3c2-c2ccnc(NCCCNS(=O)(=O)c3ccc(C(F)(F)F)cc3)n2)c1", "false (0)"],
  ["NC(=S)N1N=C(c2ccccc2)CC1c1cn(-c2ccccc2)nc1-c1ccc(OCc2ccccc2)cc1 (stereo unspecified)", "false (0)"],
  ["CCCCCCCCOc1ccc(/C=N/Nc2cc(C)nc3ccc(Br)cc23)cc1", "false (0)"],
  ["COc1cc(/C=C\\c2cc(/C=C\\c3ccc(O)c(OC)c3)n(C(=O)COc3ccccc3)n2)ccc1O", "true (1)"],
  ["COc1cc2c(cc1OC)C(=O)/C(=C/c1cc(C)c(O)c(C)c1)S2", "false (0)"],
  ["CCOC(=O)Oc1c(OC)cc(C(=O)c2ccc(OC)c(OC(=O)CCl)c2OC)cc1OC", "false (0)"],
  ["COc1ccc(CC(C)=C(c2ccc(OCCN3CCCCCC3)cc2)c2ccc(OCCN3CCCCCC3)cc2)cc1", "true (1)"],
  ["COc1cc2oc(-c3cccc(C(=O)Nc4ccc(Cl)cc4)c3)cc(=O)c2c(O)c1OC", "false (0)"],
  ["Nc1c(S(=O)(=O)O)cc2c3c(cccc13)C(=O)OC2=O", "false (0)"],
  ["COc1ccc(C(=O)c2cc(OC)c(OC)c(OC)c2)cc1O", "false (0)"],
  ["Cc1c(C)c([N+](=O)[O-])c(C)c([N+](=O)[O-])c1C", "false (0)"],
  ["COC(=O)N[C@H]1CCc2c(Cl)c(OC)c(OC)c(OC)c2-c2ccc(SC)c(=O)cc21", "false (0)"],
  ["O=C1Nc2cc(Cl)ccc2/C1=C\\c1c(-c2ccc(F)cc2)nc2ccccn12", "false (0)"],
  ["COc1ccc(/C=C2\\Oc3cc(OCCCCCN4CCCCC4)ccc3C2=O)cc1OC", "false (0)"],
  ["COc1ccc2nc(-c3ccc(-c4noc(-c5cc(OC)c(OC)c(OC)c5)n4)cc3)[nH]c2c1", "false (0)"]
]}
